# Tested on: Escherichia coli
# experiment_description: Activity of purified Escherichia coli pantothenate kinase by spectrophotometry
assay_endpoint: log10 Km (log10 of the value in µM)
// stored as log10 of Km expressed in µM

Before answering, review these 4 worked examples.
{"columns": ["chemical_structure", "log10 Km"],
 "data": [
  ["CCCCCNC(=O)CCNC(=O)[C@H](O)C(C)(C)CO", 1.56],
  ["CCCCCNC(=O)CNCCCNC(=O)[C@H](O)C(C)(C)CO", 3.08],
  ["CCCCCNC(=O)CCNC(=O)[C@H](O)[C@](C)(CC)CO", 2.36],
  ["CC(C)(CO)[C@@H](O)C(=O)NCCC(=O)NCCCc1ccccc1", 1.51]
]}

log10 Km for CC(C)(CO)[C@@H](O)C(=O)NCCC(=O)NCCS is 1.78

Source of measurements: ChEMBL document CHEMBL3286191
